Catalogue of normalised inhibition (eCFP-eYFP dual reporter) readings, one per entry.
target: DENND5A; experiment: reporter assay of Huesken 2005; conditions: siRNA; further: test concentration or dose not given here
Oligonucleotides are written 5' to 3', each unit as a sugar letter and its base; * is a phosphorothioate linkage, no mark a phosphodiester; rarer units and linkages stand in square brackets, end groups in braces. Plain capitals give the bases only. d = 2'-deoxy (DNA); r = 2'-OH (RNA)
observable: normalised inhibition (eCFP-eYFP dual reporter) (%)

[
  {
    "substance": "sense rUrUrGrArGrArArGrArArCrArUrUrCrArArArUdTdT / antisense rArUrUrUrGrArArUrGrUrUrCrUrUrCrUrCrArAdTdG",
    "valueUnit": "%",
    "quantitativeReadout": 54.7
  },
  {
    "substance": "sense rCrUrArUrCrArCrCrUrCrCrUrGrUrCrUrUrUrCdTdT / antisense rGrArArArGrArCrArGrGrArGrGrUrGrArUrArGdAdG",
    "valueUnit": "%",
    "quantitativeReadout": 63.1
  },
  {
    "substance": "sense rCrCrCrCrGrCrCrGrCrUrGrCrArGrCrArGrUrCdTdT / antisense rGrArCrUrGrCrUrGrCrArGrCrGrGrCrGrGrGrGdTdC",
    "valueUnit": "%",
    "quantitativeReadout": 61.8
  },
  {
    "substance": "sense rUrCrArGrUrGrUrGrArUrGrArArGrArArGrArAdTdT / antisense rUrUrCrUrUrCrUrUrCrArUrCrArCrArCrUrGrAdAdC",
    "valueUnit": "%",
    "quantitativeReadout": 75.2
  },
  {
    "substance": "sense rCrUrGrUrCrUrUrUrCrArArUrGrCrCrGrUrCrGdTdT / antisense rCrGrArCrGrGrCrArUrUrGrArArArGrArCrArGdGdA",
    "valueUnit": "%",
    "quantitativeReadout": 47.4
  },
  {
    "substance": "sense rGrGrArGrCrArArCrUrCrCrArCrCrArGrGrCrAdTdT / antisense rUrGrCrCrUrGrGrUrGrGrArGrUrUrGrCrUrCrCdAdG",
    "valueUnit": "%",
    "quantitativeReadout": 62.1
  },
  {
    "substance": "sense rArArGrArGrGrArArUrGrGrGrArArCrArUrUrGdTdT / antisense rCrArArUrGrUrUrCrCrCrArUrUrCrCrUrCrUrUdGdT",
    "valueUnit": "%",
    "quantitativeReadout": 50
  },
  {
    "substance": "sense rUrGrArUrCrUrCrCrUrGrGrArArArGrGrArUrCdTdT / antisense rGrArUrCrCrUrUrUrCrCrArGrGrArGrArUrCrAdCdA",
    "valueUnit": "%",
    "quantitativeReadout": 44.1
  },
  {
    "substance": "sense rUrUrCrUrGrGrGrGrUrCrUrArUrGrGrGrCrCrAdTdT / antisense rUrGrGrCrCrCrArUrArGrArCrCrCrCrArGrArAdAdA",
    "valueUnit": "%",
    "quantitativeReadout": 63.2
  },
  {
    "substance": "sense rCrUrCrArArGrArGrGrCrUrArArCrCrUrCrUrGdTdT / antisense rCrArGrArGrGrUrUrArGrCrCrUrCrUrUrGrArGdGdC",
    "valueUnit": "%",
    "quantitativeReadout": 52.3
  },
  {
    "substance": "sense rArUrUrGrArCrArArCrCrArCrUrUrCrArUrUrGdTdT / antisense rCrArArUrGrArArGrUrGrGrUrUrGrUrCrArArUdGdT",
    "valueUnit": "%",
    "quantitativeReadout": 48.7
  },
  {
    "substance": "sense rUrUrGrArCrCrArArGrArUrGrCrArGrUrArGrGdTdT / antisense rCrCrUrArCrUrGrCrArUrCrUrUrGrGrUrCrArAdAdG",
    "valueUnit": "%",
    "quantitativeReadout": 57.9
  },
  {
    "substance": "sense rUrGrCrArGrGrArGrUrUrCrArArCrArUrCrArCdTdT / antisense rGrUrGrArUrGrUrUrGrArArCrUrCrCrUrGrCrAdAdT",
    "valueUnit": "%",
    "quantitativeReadout": 62.5
  },
  {
    "substance": "sense rArUrUrUrGrArCrUrUrUrCrCrUrGrUrCrArArAdTdT / antisense rUrUrUrGrArCrArGrGrArArArGrUrCrArArArUdAdG",
    "valueUnit": "%",
    "quantitativeReadout": 53.7
  },
  {
    "substance": "sense rCrArCrCrUrArCrUrCrUrCrCrGrUrArCrArUrCdTdT / antisense rGrArUrGrUrArCrGrGrArGrArGrUrArGrGrUrGdTdC",
    "valueUnit": "%",
    "quantitativeReadout": 54.7
  },
  {
    "substance": "sense rUrCrCrCrCrUrUrUrGrCrArUrUrCrCrUrArCrGdTdT / antisense rCrGrUrArGrGrArArUrGrCrArArArGrGrGrGrAdGdC",
    "valueUnit": "%",
    "quantitativeReadout": 44.7
  },
  {
    "substance": "sense rGrUrUrUrArGrArUrArArUrGrArCrCrArGrArGdTdT / antisense rCrUrCrUrGrGrUrCrArUrUrArUrCrUrArArArCdGdC",
    "valueUnit": "%",
    "quantitativeReadout": 51.4
  },
  {
    "substance": "sense rCrArArGrArUrCrArGrGrCrUrGrUrUrGrArArUdTdT / antisense rArUrUrCrArArCrArGrCrCrUrGrArUrCrUrUrGdTdC",
    "valueUnit": "%",
    "quantitativeReadout": 55.7
  }
]

Data origin, for the record: the OligoGym collection
